Test system: NCI-H1341 complex spheroids, percent test/control
Assay: Anticancer human tumor NCI-H1341 cell line growth inhibition [AhR];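 note: spheroids exposed to agents for seven days before readout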
Conditions: curve of first compound; second compound 1 µM
Parameter Measured: IC50 (nM)

Compound | Parameter Measured | Unit Info | Readout Qualifier | Reported Measurement
CCN(c1cc(-c2ccc(CN3CCOCC3)cc2)cc(C(=O)NCc2c(C)cc(C)[nH]c2=O)c1C)C1CCOCC1 + CC(CO)NC(=O)c1cc(-c2ccc(Cl)cc2)nn(-c2cnn(C)c2)c1=O | IC50 | nM | > | 3000
Nc1ncn(C2CC(O)C(CO)O2)c(=O)n1 (stereo unspecified) + CC(CO)NC(=O)c1cc(-c2ccc(Cl)cc2)nn(-c2cnn(C)c2)c1=O | IC50 | nM | = | 85.3
CC1COCCN1c1cc(C2(S(C)(=N)=O)CC2)nc(-c2ccnc3[nH]ccc23)n1 (stereo unspecified) + CC(CO)NC(=O)c1cc(-c2ccc(Cl)cc2)nn(-c2cnn(C)c2)c1=O | IC50 | nM | = | 1540
O=C(C=Cc1cccc(S(=O)(=O)Nc2ccccc2)c1)NO + Cc1cncc(-c2nc(NCCc3c[nH]c4ccccc34)c3ncn(C(C)C)c3n2)c1 | IC50 | nM | = | 179
CC(C)CC(NC(=O)C(Cc1ccccc1)NC(=O)c1cnccn1)B(O)O (stereo unspecified) + Cc1ccccc1N=Nc1ccc(NC(=O)c2ccnn2C)c(C)c1 | IC50 | nM | = | 4.96
Nc1ccccc1NC(=O)c1ccc(CNC(=O)OCc2cccnc2)cc1 + Cc1cncc(-c2nc(NCCc3c[nH]c4ccccc34)c3ncn(C(C)C)c3n2)c1 | IC50 | nM | = | 369
COc1ccc([C@@H](O)c2cc(-c3ncnc4cc(N5CCOCC5)ccc34)c(F)cc2Cl)nn1 + Cc1cncc(-c2nc(NCCc3c[nH]c4ccccc34)c3ncn(C(C)C)c3n2)c1 | IC50 | nM | = | 687
COc1cc(Nc2ncc3c(n2)-c2ccc(Cl)cc2C(c2c(F)cccc2OC)=NC3)ccc1C(=O)O + Cc1ccccc1N=Nc1ccc(NC(=O)c2ccnn2C)c(C)c1 | IC50 | nM | = | 249
Cn1ncnc1C1c2n[nH]c(=O)c3cc(F)cc(c23)NC1c1ccc(F)cc1 (stereo unspecified) + CC(CO)NC(=O)c1cc(-c2ccc(Cl)cc2)nn(-c2cnn(C)c2)c1=O | IC50 | nM | > | 100
CC[C@@]1(O)C(=O)OCc2c1cc1n(c2=O)Cc2cc3c(CN(C)C)c(O)ccc3nc2-1 + Cc1ccccc1N=Nc1ccc(NC(=O)c2ccnn2C)c(C)c1 | IC50 | nM | = | 67.1
O=C(C=Cn1cnc(-c2cc(C(F)(F)F)cc(C(F)(F)F)c2)n1)NNc1cnccn1 + Cc1cncc(-c2nc(NCCc3c[nH]c4ccccc34)c3ncn(C(C)C)c3n2)c1 | IC50 | nM | = | 81.1

###

Tested on: NCI-H1341 complex spheroids, percent test/control
Assay: Anticancer human tumor NCI-H1341 cell line growth inhibition [AhR];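 note: spheroids exposed to agents for seven days before readout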
Conditions: second compound 0.316 µM; first compound 0.0316 µM; stronger effect = lower value
Strictly below 40% in viability, T/C: Met. Otherwise: Not met.

Molecule | Cat
O=C(C=Cc1cccc(S(=O)(=O)Nc2ccccc2)c1)NO + CC(CO)NC(=O)c1cc(-c2ccc(Cl)cc2)nn(-c2cnn(C)c2)c1=O | Not met
Cn1ncnc1C1c2n[nH]c(=O)c3cc(F)cc(c23)NC1c1ccc(F)cc1 (stereo unspecified) + CC(CO)NC(=O)c1cc(-c2ccc(Cl)cc2)nn(-c2cnn(C)c2)c1=O | Not met
NS(=O)(=O)OCC1CC(n2ccc3c(NC4CCc5ccccc54)ncnc32)CC1O (stereo unspecified) + Cc1ccccc1N=Nc1ccc(NC(=O)c2ccnn2C)c(C)c1 | Not met
COc1cc(Nc2ncc3c(n2)-c2ccc(Cl)cc2C(c2c(F)cccc2OC)=NC3)ccc1C(=O)O + Cc1cncc(-c2nc(NCCc3c[nH]c4ccccc34)c3ncn(C(C)C)c3n2)c1 | Met
Nc1ccn(C2OC(CO)C(O)C2(F)F)c(=O)n1 (stereo unspecified) + CC(CO)NC(=O)c1cc(-c2ccc(Cl)cc2)nn(-c2cnn(C)c2)c1=O | Met
NS(=O)(=O)OCC1CC(n2ccc3c(NC4CCc5ccccc54)ncnc32)CC1O (stereo unspecified) + CC(CO)NC(=O)c1cc(-c2ccc(Cl)cc2)nn(-c2cnn(C)c2)c1=O | Met
